Values compiled from ChEMBL document CHEMBL1157539.

Test system: Plasmodium falciparum
Assay: GSK_TCMDC: Inhibition of Plasmodium falciparum 3D7 in whole red blood cells, using parasite LDH activity as an index of growth. Test compounds present at 2uM
Assay type: functional
observed_property: Inhibition (%)
Write down the numeric answer in % and omit the unit.

{"compound": "CN(C)CCOc1ccc(NC(=O)Nc2ccnc3c(Br)cccc23)cc1Cl", "unit": "%", "Inhibition": 97}
{"compound": "O=C(Cc1c[nH]cn1)Nc1cccc(-c2cccc(-c3nc4ccccc4[nH]3)c2)c1", "unit": "%", "Inhibition": 97}

For CCOC(=O)c1cn(CC)c2cc(N3CCCCCC3)c(F)cc2c1=O , what is its reported Inhibition?
94

For CC(=O)Nc1nc(C(=O)Nc2cccc(-c3ccc(-c4nc5ccccc5[nH]4)cc3)c2)cs1 , what is its reported Inhibition?
100

For COc1ccc2nccc([C@@H](O)CN3CCC(NC(=O)c4[nH]c5ccccc5c4-c4ccccc4)CC3)c2c1 , what is its reported Inhibition?
96

For Cc1cc(NCCC(=O)Nc2ccccc2)nc(NCCOc2ccccc2)n1.O=C(O)C(F)(F)F , what is its reported Inhibition?
100

For Cc1cccc2nc(-c3ccc(-c4cccc(NC(=O)c5cnccc5C(F)(F)F)c4)cc3)[nH]c12 , what is its reported Inhibition?
84

For CNCCNCc1cccc(-c2ccc(-c3nc4ccccc4[nH]3)cc2)c1.O=C(O)C(F)(F)F , what is its reported Inhibition?
99

For CN(C)c1ccc(C2(c3ccccc3)N=C(N)N(CCCc3ccccc3)C2=O)cc1.O=C(O)C(F)(F)F (stereo not given) , what is its reported Inhibition?
99

For O=C(Nc1ccc(F)cc1)NC1CCN(CCCCCNC(=O)C2CC2c2ccc(Cl)c(Cl)c2)CC1 (stereo not given) , what is its reported Inhibition?
100

For O=c1cc(NC[C@H]2CCC[C@@H]2NC2CCCc3c2[nH]c2ccccc32)[nH]c2ccccc12 (stereo not given in full) , what is its reported Inhibition?
100

For O=C(N[C@H]1CCN(Cc2ccc(OCCCN3CCCCC3)cc2)C1)c1ccc(Cl)c(Cl)c1 , what is its reported Inhibition?
100

For CC(=O)N1N=C(c2ccc(F)cc2)Sc2c1nc(C1CCCCC1)n2C(C)=O , what is its reported Inhibition?
92

For CCOc1ccc(-c2nonc2NC(=O)c2ccccc2Cl)cc1OCC , what is its reported Inhibition?
100

For O=[N+]([O-])c1c(O)nc2c(c1O)CCC2 , what is its reported Inhibition?
97

For Cn1ccnc1Sc1ncccc1[N+](=O)[O-] , what is its reported Inhibition?
96

For O=C(O)C(F)(F)F.Oc1ccc(CN2CCC(NCc3cccc(C(F)(F)F)c3)CC2)cc1 , what is its reported Inhibition?
100

For Cc1cc(N2CCOCC2)nc(Nc2ccc(NC(=O)c3cccc4ccccc34)cc2)n1 , what is its reported Inhibition?
95

For CC(C)C1=NC(=O)c2cc([N+](=O)[O-])ccc2CN1 , what is its reported Inhibition?
98

For CC(C)CCN1CCC(Oc2cccc(NC(=O)c3ccc(C(F)(F)F)cc3)c2)CC1.O=C(O)C(F)(F)F , what is its reported Inhibition?
98

* * *

Tested on: Plasmodium falciparum
Assay: GSK_TCMDC: Inhibition of Plasmodium falciparum Dd2 in whole red blood cells, using parasite LDH activity as an index of growth. Test compounds present at 2uM
Type: functional
Reported values of Inhibition for individual entries
Write down the numeric answer in % and omit the unit.

For orientation, consider the following solved cases.
{"compound": "CN1CCC(NCc2ccc(-c3cccc(S(=O)(=O)NCC4CCCO4)c3)cc2)CC1.O=C(O)C(F)(F)F (centres undefined)", "endpoint_result": 0}
{"compound": "COc1cc(F)c2ncc(Cl)c(CCN3CCC(NCc4ccc5c(n4)NC(=O)CO5)CC3)c2c1.Cl", "endpoint_result": 19}
{"compound": "COc1ccc2nccc([C@@H](O)CN3CCC(NC(=O)c4ccc(Cl)c(OC)c4)CC3)c2c1", "endpoint_result": 28}
{"compound": "Cl.Oc1ccc2ccccc2c1CNC1CCCCCC1", "endpoint_result": 33}
{"compound": "CC1=C(C(=O)Nc2cc3cn[nH]c3cc2F)C(c2cccc(NS(C)(=O)=O)c2)CC(=O)N1 (centres undefined)", "endpoint_result": 97}

For COc1cccc2cc(C(=O)N[C@@H](CC(C)C)C(=O)N[C@H](C=NN3CCOC3=O)CC(C)C)oc12 , what is its reported Inhibition?
72

For COc1ccc2c(c1)CCN(CCN1CCC(CNC(=O)c3ccc(-c4ccc(C#N)cc4)cc3)CC1)C2 , what is its reported Inhibition?
51

For O=C(Nc1ccc(-c2nc3ccccc3[nH]2)cc1)c1ccc(N2CCCC2)c([N+](=O)[O-])c1 , what is its reported Inhibition?
95

For COc1cc(NC(=O)c2c(-c3c(F)cccc3Cl)noc2C)c(OC)cc1Cl , what is its reported Inhibition?
17
